I'd be grateful if you could share measured melting point for these entries.

Give the reported melting point for this molecule. CC(CS(=O)(=O)c1ccc(-c2ccc(C(F)(F)F)cc2)cc1)N(O)C=O (racemic) [Example 122]
174.6 to 175.2 °C

Give the reported melting point for this molecule. CC(CS(=O)(=O)c1ccc(-c2ccc3c(c2)OCO3)cc1)N(O)C=O (stereo not shown) [Example 73]
200 to 201 °C

Give the reported melting point for this molecule. CN1C(=O)N(CCC(COc2ccc(-c3ccc(C#N)cc3)cc2)N(O)C=O)C(=O)C1(C)C (racemic) [Example 5]
68 to 70 °C

Give the reported melting point for this molecule. CC1(C)NC(=O)N(CC(CS(=O)(=O)c2ccc(-c3ccc(OC(F)(F)F)cc3)cc2)N(O)C=O)C1=O (stereo not shown) [Example 115]
195 to 197 °C

* * *

property name: melting point

Give the reported melting point for this compound. COCC(CS(=O)(=O)c1ccc(-c2ccc(C(F)(F)F)cc2)cc1)N(O)C=O (racemic)
175.3 to 176.3 °C

Give the reported melting point for this compound. COCOc1ccc(C(CS(=O)(=O)c2ccc(-c3ccc(C(F)(F)F)cc3)cc2)N(O)C=O)cc1 (racemic)
137.1 to 138.5 °C

Give the reported melting point for this compound. `N#Cc1ccc(-c2ccc(OCCN(O)C=O)cc2)cc1`
142 to 145 °C

Give the reported melting point for this compound. N#Cc1ccc(-c2ccc(OCC(c3ccc(F)cc3)N(O)C=O)cc2)cc1 (racemic)
194 to 196 °C

* * *

I'd be grateful if you could share measured melting point for these entries.

Give the reported melting point for this compound. CN1C(=O)N(CC(CS(=O)(=O)c2ccc(Oc3ccc(C(F)(F)F)cc3)cc2)N(O)C=O)C(=O)C1(C)C (racemic) [Example 153]
141 to 143 °C

Give the reported melting point for this compound. O=CN(O)C(CCCO)CS(=O)(=O)c1ccc(-c2ccc(C(F)(F)F)cc2)cc1 (racemic) [Example 128]
138.9 to 140.3 °C

Give the reported melting point for this compound. N#Cc1ccc(-c2ccc(OCC(CN3C(=O)c4ccccc4C3=O)N(O)C=O)cc2)cc1 (racemic) [Example 3]
199 to 202 °C

Give the reported melting point for this compound. CC1(C)NC(=O)N(CCC(COc2ccc(-c3ccc(C#N)cc3)cc2)N(O)C=O)C1=O (centres unmarked) [Example 47]
202 to 204 °C

Give the reported melting point for this compound. N#Cc1cccc(-c2ccc(OCC(CN3C(=O)CCC3=O)N(O)C=O)cc2)c1 (centres unmarked) [Example 49]
128 °C

Give the reported melting point for this compound. CSc1ccc(-c2ccc(OCC(CN3C(=O)N(C)C(C)(C)C3=O)N(O)C=O)cc2)cc1 (centres unmarked) [Example 40]
172 to 174 °C

Give the reported melting point for this compound. CC(COc1ccc(-c2ccc(C#N)cc2)cc1)N(O)C=O (racemic) [Example 13]
141 to 144 °C

Give the reported melting point for this compound. CC1(C)CC(=O)N(CC(CS(=O)(=O)c2ccc(-c3ccc(C(F)(F)F)cc3)cc2)N(O)C=O)C(=O)C1 (racemic) [Example 124]
185.6 to 187.3 °C

* * *

I'd be grateful if you could share measured melting point for these entries.

Give the reported melting point for this compound. O=CN(O)C(CO)CS(=O)(=O)c1ccc(-c2ccc(OC(F)(F)F)cc2)cc1 (racemic)
167 to 168 °C

Give the reported melting point for this compound. O=CN(O)C(CO)CS(=O)(=O)c1ccc(Oc2ccc(OC(F)(F)F)cc2)cc1 (racemic)
115 to 117 °C

Give the reported melting point for this compound. O=CN(O)C(CS(=O)(=O)c1ccc(-c2ccc(C(F)(F)F)cc2)cc1)c1ccc2c(c1)OCO2 (racemic)
159.5 to 160.5 °C

Give the reported melting point for this compound. O=CN(O)C(CS(=O)(=O)c1ccc(-c2ccc(C(F)(F)F)cc2)cc1)c1ccccn1 (racemic)
168.5 to 168.9 °C

* * *

# assayed system: Recombinant truncated stromelysin (human sequence) (Homo sapiens)
# Sequence (P08254 100-272 limits assumed): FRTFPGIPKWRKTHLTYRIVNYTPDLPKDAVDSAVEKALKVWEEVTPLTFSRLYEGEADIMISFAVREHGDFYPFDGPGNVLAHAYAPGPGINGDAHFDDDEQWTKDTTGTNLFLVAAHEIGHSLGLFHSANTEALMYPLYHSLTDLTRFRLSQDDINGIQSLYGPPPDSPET
# protocol summary: Determination of Stromelysin Inhibition
# reported conditions: cleavage of thiopeptide ester substrate Ac-Pro-Leu-Gly-[2-mercapto-4-methyl-pentanoyl]-Leu-Gly-OEt, DTNB read at 405 nm, 30 minute assay at ambient temperature, 50 mM MES/NaOH 6.5
property name: IC50
Please answer using a numeric value trailed by its unit.

Give IC50; test system Recombinant truncated stromelysin (human sequence) (Homo sapiens); molecule CC(C)CC(COc1ccc(-c2ccc(C#N)cc2)cc1)N(O)C=O (racemic)
0.12 µM

Give IC50; test system Recombinant truncated stromelysin (human sequence) (Homo sapiens); molecule CN1C(=O)N(CCC(COc2ccc(-c3ccc(C#N)cc3)cc2)N(O)C=O)C(=O)C1(C)C (racemic)
0.017 µM

Give IC50; test system Recombinant truncated stromelysin (human sequence) (Homo sapiens); molecule CN1C(=O)N(CC(COc2ccc(-c3ccc(C#N)cc3)cc2)N(O)C=O)C(=O)C1(C)C (racemic)
0.0091 µM

Hello, the source for this data is patent US20020007060A1, in case you need it.
